# tested on: UniProt:P04925
# Sequence (P04925 whole entry): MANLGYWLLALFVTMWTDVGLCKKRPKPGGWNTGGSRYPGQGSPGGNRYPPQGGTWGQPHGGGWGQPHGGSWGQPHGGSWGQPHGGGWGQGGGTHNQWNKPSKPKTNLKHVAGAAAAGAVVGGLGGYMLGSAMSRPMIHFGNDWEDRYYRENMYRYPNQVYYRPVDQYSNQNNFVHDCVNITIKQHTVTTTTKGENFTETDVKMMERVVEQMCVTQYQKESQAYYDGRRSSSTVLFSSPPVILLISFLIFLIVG
# measurement notes: Binding affinity at mouse PrPC at 40 uM by SPR assay
For each entry below, report its RUmax value.

// below: answered molecules
>  <structure smiles string>
O=C(Nc1sc(-c2ccccc2)nc1-c1ccccc1)c1ccncc1

>  <tested on>
UniProt:P04925

>  <measurement kind>
RUmax

>  <measured>
8.5%

$$$$
>  <structure smiles string>
O=C(Nc1oc(-c2ccccc2)nc1-c1ccccc1)c1ccncc1

>  <tested on>
UniProt:P04925

>  <measurement kind>
RUmax

>  <measured>
0%

$$$$
>  <structure smiles string>
O=C(Nc1oc(-c2ccccc2)nc1-c1ccccc1)c1cccs1

>  <tested on>
UniProt:P04925

>  <measurement kind>
RUmax

>  <measured>
37.4%

$$$$
>  <structure smiles string>
O=C(Nc1oc(-c2ccccc2)nc1-c1ccccc1)c1ccno1

>  <tested on>
UniProt:P04925

>  <measurement kind>
RUmax

>  <measured>
21.7%

$$$$
>  <structure smiles string>
O=C(Nc1oc(-c2ccccc2)nc1-c1ccccc1)c1ccc2ccccc2n1

>  <tested on>
UniProt:P04925

>  <measurement kind>
RUmax

>  <measured>
0%

$$$$
>  <structure smiles string>
COc1ccc(C(=O)Nc2oc(-c3ccccc3)nc2-c2ccccc2)cc1

>  <tested on>
UniProt:P04925

>  <measurement kind>
RUmax

>  <measured>
0%

$$$$
>  <structure smiles string>
O=C(Nc1sc(-c2ccccc2)nc1-c1ccccc1)C(F)(F)F

>  <tested on>
UniProt:P04925

>  <measurement kind>
RUmax

>  <measured>
18.7%

$$$$
>  <structure smiles string>
O=C(Nc1sc(-c2ccccc2)nc1-c1ccccc1)c1ccccc1

>  <tested on>
UniProt:P04925

>  <measurement kind>
RUmax

>  <measured>
0%

$$$$

Items follow; give RUmax for each.
1. O=C(Nc1sc(-c2ccccc2)nc1-c1ccccc1)C1CC1
2. O=C(Nc1sc(-c2ccccc2)nc1-c1ccccc1)c1cccc(C(F)(F)F)c1
3. O=C(Nc1oc(-c2ccccc2)nc1-c1ccccc1)c1cccnc1
4. O=C(Nc1oc(-c2ccccc2)nc1-c1ccccc1)C1CC1
5. O=C(Nc1sc(-c2ccccc2)nc1-c1ccccc1)c1cccnc1
6. O=C(Nc1sc(-c2ccccc2)nc1-c1ccccc1)c1ccc(C(F)(F)F)cc1

1: 0%; 2: 0%; 3: 40%; 4: 0%; 5: 0%; 6: 0%

Items follow; give RUmax for each.
1. O=C(Nc1oc(-c2ccccc2)nc1-c1ccccc1)c1ccc([N+](=O)[O-])o1
2. O=C(Nc1oc(-c2ccccc2)nc1-c1ccccc1)C(F)(F)F
3. O=C(Nc1sc(-c2ccccc2)nc1-c1ccccc1)c1ccco1
4. O=C(Nc1oc(-c2ccccc2)nc1-c1ccccc1)c1ccco1

1: 0%; 2: 22%; 3: 8.4%; 4: 0%

Items follow; give RUmax for each.
1. O=C(Nc1oc(-c2ccccc2)nc1-c1ccccc1)c1ccc(C(F)(F)F)cc1
2. CCCC(CCC)C(=O)Nc1sc(-c2ccccc2)nc1-c1ccccc1

["0%", "0%"]
